assay-notes: NCI Yeast Anticancer Drug Screen. Data for the rad50 strain (AID 155);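 note: 0% = growth of vehicle-only cultures of the same strain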
condition-context: S. cerevisiae rad50 strain growth inhibition; at 50.0 µM
This is part of a sample that, as a whole, favours compounds with a hit. Of some 79,000 tested, about 15% had one in any assay. Active and inactive are the calls of the source. Cut-off read from the data, not from the text of the source: active = growth inhibition above about 70%; inactive = the rest.
Write down one outcome, taken from active, inactive

Before answering, review these 5 worked examples.
Query string: Would you mind telling me which call this test gave [C-]#[O+].[C-]#[O+].[C-]#[O+].[C-]#[O+].[C-]#[O+].[CH3][Sn]([Cl])[c]1ccccc1.[Mn] ?
Result string: active

Query string: Would you mind telling me which call this test gave O=[N+]([O-])c1cc(S(=O)(=O)O)cc([N+](=O)[O-])c1Cl ?
Result string: inactive

Query string: Would you mind telling me which call this test gave CP1(=S)CCC2=C1CCc1cc(O)ccc12 (stereo unspecified) ?
Result string: inactive

Query string: Would you mind telling me which call this test gave Cn1nnc(C(N)=O)n1 ?
Result string: inactive

Query string: Would you mind telling me which call this test gave CCC(C#N)N1CC1 (stereo unspecified) ?
Result string: inactive

Turning now to a further compound:
Query string: Would you mind telling me which call this test gave OC1(C#[C][Hg][C]#CC2(O)CCCCC2)CCCCC1 ?
Result string: active

###

assay-notes: NCI Yeast Anticancer Drug Screen. Data for the mlh1 rad18 strain (AID 175)
condition-context: S. cerevisiae mlh1 rad18 strain growth inhibition; at 50.0 µM; hits give high values
The panel holds about 79,000 compounds, 15% with a hit somewhere; the sample as a whole holds those more often.
experimental-readout: growth inhibition (%)
Reply with just the number (in %).

Query string: Look up and report measured growth inhibition for this entry: [N-]=[N+]=[N-]
Result string: -13.7

Continuing:
Query string: Look up and report measured growth inhibition for this entry: C=CCNC(=O)C(Br)C(C)C (stereo not drawn)
Result string: -8.2

Query string: Look up and report measured growth inhibition for this entry: OC1CN=C2c3ccccc3C(O)(c3ccc(Cl)cc3)N2C1 (stereo not drawn)
Result string: 37.5

Query string: Look up and report measured growth inhibition for this entry: O=C(Nc1ccccc1F)C(Cl)(Cl)Cl
Result string: 26.2

Query string: Look up and report measured growth inhibition for this entry: O=C(c1cc(N(CCCl)CCCl)c([N+](=O)[O-])cc1[N+](=O)[O-])N1CCOCC1
Result string: -3.75

###

assay-notes: NCI Yeast Anticancer Drug Screen. Data for the rad50 strain (AID 155);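 note: 0% = growth of vehicle-only cultures of the same strain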
condition-context: S. cerevisiae rad50 strain growth inhibition; at 50.0 µM; hits give high values
About 79,000 compounds went through this panel and 15% of them were active in at least one assay; those are over-represented in the sample as a whole.
Listing of entries alongside the reported growth inhibition.
Reply with just the number (in %).

Query string: Look up and report measured growth inhibition for this entry: CC1NCCc2cc(O)c(O)cc21 (centres undefined)
Result string: 4.35

Query string: Look up and report measured growth inhibition for this entry: S=P(C1CCCCC1)(C1CCCCC1)C(c1cccnc1)N1CCCC1 (centres undefined)
Result string: -6.85

Query string: Look up and report measured growth inhibition for this entry: CCOC(=O)N(NC(=O)c1ccc(N(CCCl)CCCl)cc1)C(C)=O
Result string: 6.2

Query string: Look up and report measured growth inhibition for this entry: CC1CN=C(Nc2ccc(F)cc2F)S1 (centres undefined)
Result string: -9.1

Query string: Look up and report measured growth inhibition for this entry: O=C([CH-]C(=O)c1ccccc1)c1ccccc1.[CH2-]C.[CH2-]C.[Tl+3]
Result string: 52.3

Query string: Look up and report measured growth inhibition for this entry: N/C(N=P(c1ccccc1)(c1ccccc1)c1ccccc1)=N\[N+](=O)[O-]
Result string: 11.7

Query string: Look up and report measured growth inhibition for this entry: O=C(CC(=O)c1ccccc1)c1ccccc1.O=C(CC(=O)c1ccccc1)c1ccccc1.[Pd]
Result string: 20.5

Query string: Look up and report measured growth inhibition for this entry: Cc1ccc(OP(=O)(Oc2ccc(C)cc2)Oc2ccc(C)cc2)cc1.Cc1ccc(OP(=O)(Oc2ccc(C)cc2)Oc2ccc(C)cc2)cc1.[Cl][Cr]([Cl])[Cl]
Result string: -1.05

Query string: Look up and report measured growth inhibition for this entry: CC1OC(=O)C(C(C)C)NC(=O)C(C(C)C)OC(=O)C(C(C)C)NC(=O)C(C)OC(=O)C(C(C)C)NC(=O)C(C(C)C)OC(=O)C(C(C)C)NC(=O)C(C)OC(=O)C(C(C)C)NC(=O)C(C(C)C)OC(=O)C(C(C)C)NC1=O (centres undefined)
Result string: 31.9

Query string: Look up and report measured growth inhibition for this entry: O=C(c1ccccc1)N1CC(Cl)CN(C(=O)c2ccccc2)CC(Cl)C1 (centres undefined)
Result string: 21.4

Query string: Look up and report measured growth inhibition for this entry: C[N+](C)(C)CC1CCC/C1=N/O (centres undefined)
Result string: 44.8

Query string: Look up and report measured growth inhibition for this entry: CCCCCCC(Cn1ccnc1)c1ccc(Br)cc1 (centres undefined)
Result string: 98.2

Query string: Look up and report measured growth inhibition for this entry: C[C@@H]1C[C@@H](O)[C@]2(O)O[C@@H]3C[C@@]4(C=O)[C@@H](CC[C@@H]5[C@@H]4CC[C@]4(C)[C@@H](C6=CC(=O)OC6)CC[C@]54O)C[C@H]3O[C@@H]2O1
Result string: -7.25

Query string: Look up and report measured growth inhibition for this entry: CN(C)CCNC(=O)c1cccc(COC(=O)N(CCCl)CCCl)c1[N+](=O)[O-]
Result string: 9.55

Query string: Look up and report measured growth inhibition for this entry: CCOP12(OCC)NC(=O)OC1(C(F)(F)F)c1ccccc1O2 (centres undefined)
Result string: -19.4

Query string: Look up and report measured growth inhibition for this entry: CN1CCC(O)(c2ccccc2)C(c2ccccc2)C1 (centres undefined)
Result string: 0.25

Query string: Look up and report measured growth inhibition for this entry: CC(/C=C/C1OC(=O)C=CC1C)=C\C(C)C/C=C/C(C)=C/C(CO)C(=O)C(C)C(O)C(C)C/C(C)=C/C(=O)O (centres undefined)
Result string: 73.1

Query string: Look up and report measured growth inhibition for this entry: CCCCCCCCCCCCCCCC(=O)OCC1OC(OC)C2NP(=O)(N(CCCl)CCCl)OC1C2O (centres undefined)
Result string: 35.4

Query string: Look up and report measured growth inhibition for this entry: Cc1ccc(NC(=O)c2cc3ccccc3cc2O)c(C)c1
Result string: 17.1
